# testedSystem: KRAS G12C (Homo sapiens (Human), UniProt P01116, C118A/G12C)
# Sequence (P01116 other isoform, or with tags, fused parts or gaps G12C/C118A): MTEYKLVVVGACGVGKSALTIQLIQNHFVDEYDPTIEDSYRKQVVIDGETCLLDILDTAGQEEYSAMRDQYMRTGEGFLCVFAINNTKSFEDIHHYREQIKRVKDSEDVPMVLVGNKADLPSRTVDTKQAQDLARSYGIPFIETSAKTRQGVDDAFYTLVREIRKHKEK
# testMethodNotes: 2 h coupled exchange assay
# Format: biochemical
# statedConditions: Avg 2 h Coupled exchange IC50, 2 h compound pre-incubation
valueKind: IC50 (nM)

As a guide, the following entries are already answered.
C=CC(=O)N1CC2(CCN(c3nc4c(c(-c5ncccc5C)c3C#N)COC(c3scnc3C)C4)C2)C1 (stereo not shown) : 802
Cc1ncsc1N1CCc2c(nc(N3CCC4(CN(C(=O)/C=C/CN(C)C)C4)C3)c(C#N)c2-c2ccccc2F)C1 : 641

(1) C=CC(=O)N1CC2(CCN(c3nc4c(c(-c5c(C)ccc6cnn(C)c56)c3F)COC(C)(C)C4)C2)C1 (single isomer, unassigned) [Example 14-102]
(2) C=CC(=O)N1CC2(CCN(c3nc4cc(-c5ccnn5C)ccc4c(-c4cc(O)c(F)cc4Cl)c3C)C2)C1
Query :: Which value of IC50 is numerically greater: that of 1 or that of 2 ? I would appreciate it if you answered with the label of your choice.
Result :: 1
(1: 55600 nM, 2: 373 nM)

* * *

# testedSystem: KRAS G12C (Homo sapiens (Human), UniProt P01116, C118A/G12C)
# testMethodNotes: 2 h coupled exchange assay
# Type: biochemical
# statedConditions: Avg 2 h Coupled exchange IC50, 2 h compound pre-incubation, SOS-mediated nucleotide exchange
pIC50: −log10 of the molar value.
valueKind: pIC50

C=CC(=O)N1CC2(CCN(c3nc4c(c(-c5c(C)ccc6[nH]ncc56)c3C#N)[C@@H]3CC[C@H]4C3)C2)C1 (single isomer, unassigned) [Example 14-4] : 7.77

(a) C=CC(=O)N1CC2(CCN(c3nc4c(c(-c5c(C)ccc6cnn(C)c56)c3C#N)COC(C)(C)C4)C2)C1 (single isomer, unassigned) [Example 13-60]
(b) C=CC(=O)N1CC2(CCN(c3nc4cc(OC)cnc4c(-c4c(C)ccc5[nH]ncc45)c3C)C2)C1 [Example 2-51]
Query :: Of a versus b , which is the one with smaller reported pIC50? Use the label to indicate which entry you chose.
Result :: b
(b: 6.57, a: 7.20)

* * *

# testedSystem: KRAS G12C (Homo sapiens (Human), UniProt P01116, C118A/G12C)
# testMethodNotes: 2 h coupled exchange assay
# Assay type: biochemical
# statedConditions: Avg 2 h Coupled exchange IC50, 2 h compound pre-incubation, SOS-mediated nucleotide exchange
valueKind: IC50 (µM)

Examples from the recorded data:
C=CC(=O)N1CC2(CCN(c3nc4c(c(-c5ccccc5Cl)c3C#N)CC[C@H](c3ccnn3C)C4)C2)C1 : 0.062
C=CC(=O)N1CC2(CCN(c3cc4c(c(-c5c(C)ccc6[nH]ncc56)c3C#N)CCCC4)C2)C1 : 0.019
C=CC(=O)N1CC2(C1)CN(c1cc3ccccc3c(-c3c(C)ccc4[nH]ncc34)c1C#N)C2 : 0.823
C=CC(=O)N1CC2(CCN(c3nc4c(c(-c5cc(C)cc6ccccc56)c3C#N)COC(C)(C)C4)C2)C1 : 0.676

(a) C=CC(=O)N1CC2(CCN(c3nc4c(c(-c5cccc6cccc(Cl)c56)n3)CCCC4)C2)C1
(b) C=CC(=O)N1CC2(CCN(c3nc4c(c(-c5c(O)cccc5Cl)c3C#N)C[C@H]3C[C@@H]4C3)C2)C1 (single isomer, unassigned) [Example 13-66]
(c) C=CC(=O)N1CC2(CCN(c3nc4c(c(-c5cc(O)cc6cccnc56)c3C#N)C[C@H]3C[C@@H]4C3(C)C)C2)C1 (single isomer, unassigned) [Example 2-44]
Query :: Descending sort on IC50 required. List each label, following the requested order.
Result :: c, b, a
(c: 131 µM, b: 76 µM, a: 4.58 µM)

* * *

# testedSystem: KRAS G12C (Homo sapiens (Human), UniProt P01116, C118A/G12C)
# testMethodNotes: 2 h coupled exchange assay
# Type: biochemical
# statedConditions: Avg 2 h Coupled exchange IC50, 2 h compound pre-incubation
valueKind: IC50 (µM)

Known IC50 results, listed for orientation:
C=CC(=O)N1CC2(CCN(c3nc4c(c(-c5c(O)cccc5Cl)c3C#N)COC(c3scnc3C)C4)C2)C1 (centres unmarked) [Example 23-35] : 0.84
C=CC(=O)N1CC2(CCN(c3nc4c(c(-c5c(C)ccc6cn[nH]c56)c3C)CC[C@H](c3c(C)cnn3C)C4)C2)C1 (single isomer, unassigned) [Example 14-97] : 0.208
C=CC(=O)N1CC2(CCN(c3nc4c(c(-c5c(C)ccc6cnn(C)c56)c3F)C[C@H]3C[C@@H]4C3(C)C)C2)C1 (single isomer, unassigned) [Example 14-63] : 0.364

(a) C=CC(=O)N1CC2(CCN(c3nc4cc(OC)ccc4c(-c4ccccc4Cl)c3C#N)C2)C1 [Example 20-5]
(b) C=CC(=O)N1CC2(CCN(c3nc4c(c(-c5cc(C(F)F)ccc5Cl)c3C#N)CCN(c3scnc3C)C4)C2)C1 [Example 23-61]
Query :: For the pair a and b , which entry has the numerically smaller recorded IC50? Respond using the label that marks the chosen record.
Result :: b
(b: 0.103 µM, a: 0.572 µM)

* * *

# testedSystem: KRAS G12C (Homo sapiens (Human), UniProt P01116, C118A/G12C)
# testMethodNotes: 2 h coupled exchange assay
# Format: biochemical
# statedConditions: Avg 2 h Coupled exchange IC50, 2 h compound pre-incubation
pIC50: −log10 of the molar value.
valueKind: pIC50

Past entries and their recorded results:
C=CC(=O)N1CC2(CCN(c3nc4cc(-c5scnc5C)cnc4c(-c4cccc(C)c4C)c3C#N)C2)C1 (single isomer, unassigned) [Example 19-13] : 7.17
C=CC(=O)N1CC2(CCN(c3nc4c(c(-c5c(C)c(Cl)cc6cnn(C)c56)c3C#N)COC(C)(C)C4)C2)C1 [Example 14-92] : 7.55

(1) C=CC(=O)N1CC2(CCN(c3nc4c(c(-c5cc(O)ccc5F)c3C#N)CCN(c3scnc3C)C4)C2)C1 [Example 21-19]
(2) C=CC(=O)N1CC2(CCN(c3nc4c(c(-c5ccccc5C)c3C#N)CCC(c3scnc3C)=C4)C2)C1 (single isomer, unassigned) [Example 23-24]
(3) C=CC(=O)N1CC2(CCN(c3nc4c(c(-c5ccccc5Cl)c3C)CCC(c3c(C)cnn3C)C4)C2)C1 (stereo not drawn) [Example 14-96]
(4) C=CC(=O)N1CC2(CCN(c3nc4cc(-c5scnc5C)ccc4c(-c4ccccc4O)c3C#N)C2)C1 [Example 20-20]
Query :: Ordering criterion: pIC50; begin with the maximum. Form entry: labels listed in requested order.
Result :: 1, 2, 4, 3

* * *

# testedSystem: KRAS G12C (Homo sapiens (Human), UniProt P01116, C118A/G12C)
# testMethodNotes: 2 h coupled exchange assay
# Assay type: biochemical
# statedConditions: Avg 2 h Coupled exchange IC50, 2 h compound pre-incubation, SOS-mediated nucleotide exchange
pIC50: −log10 of the molar value.
valueKind: pIC50

C=CC(=O)N1CC2(CCN(c3nc4c(c(-c5c(C)ccc6cnn(C)c56)c3C#N)CC[C@H]3C[C@@H]43)C2)C1 (single isomer, unassigned) [Example 13-135] : 4.20

(P) C=CC(=O)N1CC2(CCN(c3nc4c(c(-c5c(Cl)ccc6cc[nH]c56)c3C#N)COC(C)(C)C4)C2)C1
(Q) C=CC(=O)N1CC2(CCN(c3nc4c(c(-c5c(C)ccc6cnn(C)c56)c3C#N)COC4(C)C)C2)C1 (single isomer, unassigned) [Example 13-56]
Query :: Task for the reader: decide whether P or Q has the larger pIC50. Indicate which entry you chose by stating its label.
Result :: P

* * *

# testedSystem: KRAS G12C (Homo sapiens (Human), UniProt P01116, C118A/G12C)
# testMethodNotes: 2 h coupled exchange assay
# Assay type: biochemical
# statedConditions: Avg 2 h Coupled exchange IC50, 2 h compound pre-incubation, SOS-mediated nucleotide exchange
pIC50: −log10 of the molar value.
valueKind: pIC50

Look over these answered cases.
C=C(Br)C(=O)N1CC2(CCN(c3nc4c(F)cccc4c(-c4c(C)ccc5[nH]ncc45)c3C#N)C2)C1 : 6.10
C=CC(=O)N1CC2(CCN(c3nc4ccccc4c(-c4c(C)ccc5[nH]ncc45)c3C)[C@H]2C)C1 (single isomer, unassigned) : 6.97

(a) C=CC(=O)N1CC2(CCN(c3nc4c(c(-c5cccc6cc(N)ccc56)c3C#N)COC(C)(C)C4)C2)C1
(b) C=CC(=O)N1CC2(CCN(c3nc4c(c(-c5c(C)c(Cl)cc6[nH]ncc56)c3Cl)COC(C)(C)C4)C2)C1 (single isomer, unassigned) [Example 2-108]
Query :: Two entries are listed, a and b . Which one carries the higher pIC50? Pick one; state its label.
Result :: a

* * *

# testedSystem: KRAS G12C (Homo sapiens (Human), UniProt P01116, C118A/G12C)
# testMethodNotes: 2 h coupled exchange assay
# Assay type: biochemical
# statedConditions: Avg 2 h Coupled exchange IC50, 2 h compound pre-incubation
pIC50: −log10 of the molar value.
valueKind: pIC50

Some entries whose results are on file:
C=CC(=O)N1CC2(CCN(c3nc4c(c(-c5c(C)c(Cl)cc6cn[nH]c56)c3F)COC(C)(C)C4)C2)C1 [Example 14-85] : 7.25
C=CC(=O)N1CC2(CCN(c3nc4c(c(-c5ncccc5C)c3C#N)CC[C@@](C)(c3scnc3C)C4)C2)C1 [Example 23-10] : 6.70
C=CC(=O)N1CC2(CCN(c3nc4c(c(-c5ccccc5C)c3C#N)CC[C@H](c3scnc3C)C4)C2)C1 (single isomer, unassigned) [Example 23-6] : 6.89

(A) C=CC(=O)N1CC2(CCN(c3nc4c(c(-c5c(C)ccc6cnn(C)c56)c3F)C[C@H]3C[C@@H]4C3(C)C)C2)C1 (single isomer, unassigned) [Example 14-64]
(B) C=CC(=O)N1CC2(CCN(c3nc4c(c(-c5c(C)ccc6cnn(C)c56)c3C)CCN(C3CCCN(C)C3)C4)C2)C1 (stereo not drawn) [Example 18-20]
(C) C=CC(=O)N1CC2(CCN(c3nc4cc(-n5ccnc5C)ccc4c(-c4ccccc4F)c3C#N)C2)C1 [Example 17-5]
Query :: Ordering criterion: pIC50; begin with the maximum. Please list each label once, in the requested order.
Result :: C, B, A
(C: 7.15, B: 6.43, A: 4.93)
